Attribution: PubChem BioAssay (NCI)

System: MOLT-4 leukemia
Experiment: NCI tumour cell line growth inhibition, 48 h
MEASURED QUANTITY: TGI (µM)
Report the value in µM with no unit label.

Need TGI, item CCOC(=O)CC[C@H](NC(=O)[C@H](N)Cc1ccc(N(CCCl)CCCl)cc1)C(=O)OCC
6.85

Which value of TGI has been reported for COc1ccc2c(c1)C(=O)c1c-2c(N2CCN(C(=O)CNCCNCCO)CC2)nc2ccccc12 in the records?
6.61

TGI lookup needed for O=c1c(/C=C/c2c(O)ccc3ccccc23)nnc2sc(-c3cccc(Br)c3)nn12 , thanks.
40.3

Can you look up the measured TGI of COC(=O)/C=C(\C)CC(O)/C=C(\C)CCC=C(C)C (centres undefined) for me?
55.3

// TGI lookup, key: CNCC#Cc1c(F)ccc2c1/C(=C/c1[nH]ccc1OC)C(=O)N2
2.26

I have this molecule here, NCCNc1c2c(c(NCCN)c3[nH]ccc13)C(=O)c1ccccc1C2=O , and I need its recorded TGI.
0.0437

Returns the measured TGI for the input molecule. Input: CCC[CH2][Sn]([Cl])([CH2]CCC)[CH2]CCC
0.632
